# assay-details: MRT (0 to infinity) in Sprague-Dawley rat at 50 mg/kg, ip measured afer 24 hrs by LC-MS/MS analysis
# Format: ADME, organism-based
# setup-conditions: in vivo
value-kind: MRT inf (h)
Report as a plain number; the unit h is understood.

INPUT: Give the measured MRT inf for COc1ccc(C(=O)Nc2cc(-c3ccnc(N4CCC(O)CC4)c3)ccn2)cc1
OUTPUT: 1.26

---

I'd be grateful if you could share measured IC50 at 72 h for these entries.
# assay-details: Cytotoxicity against human MCF-10A cells assessed as inhibition of cell growth incubated for 72 hrs by MTT assay
# Format: toxicity, cell-based
Report as a plain number; the unit nM is understood.

INPUT: Give the measured IC50 at 72 h for N[C@H]1CC[C@H](Nc2cc(-c3cccc(NCc4cccc(F)c4)n3)c(Cl)cn2)CC1
OUTPUT: 108

INPUT: Give the measured IC50 at 72 h for COc1ccc(C(=O)Nc2cc(-c3ccnc(N4CCC(O)CC4)c3)ccn2)cc1
OUTPUT: 498

---

# assay-details: Toxicity in mouse assessed as death rate at 1000 mg/kg, ip administered for 16 days relative to control
# Assay type: organism-based
# setup-conditions: in vivo, time 16 day, read-out: Activity
value-kind: mortality at 384 h (%)
Report as a plain number; the unit % is understood.

INPUT: Give the measured mortality at 384 h for COc1ccc(C(=O)Nc2cc(-c3ccnc(N4CCC(O)CC4)c3)ccn2)cc1
OUTPUT: 100

---

# assay-details: Tmax in Sprague-Dawley rat at 50 mg/kg, ip measured afer 24 hrs by LC-MS/MS analysis
# Type: ADME, organism-based
# setup-conditions: in vivo
value-kind: Tmax (min)
Report as a plain number; the unit min is understood.

INPUT: Give the measured Tmax for COc1ccc(C(=O)Nc2cc(-c3ccnc(N4CCC(O)CC4)c3)ccn2)cc1
OUTPUT: 30

---

# Test system: MDA-MB-231
# assay-details: cells
# setup-conditions: Homo sapiens, MDA-MB-231, 72 h
I'd be grateful if you could share measured IC50 for these entries.
Report as a plain number; the unit µM is understood.

INPUT: Give the measured IC50 for COc1cccc(C(=O)Nc2cc(-c3ccnc(N4CCC(O)CC4)c3)ccn2)c1
OUTPUT: 3.94

INPUT: Give the measured IC50 for COc1ccc(C(=O)Nc2cc(-c3ccnc(N4CCN(C)CC4)c3)ccn2)cc1
OUTPUT: 0.485

INPUT: Give the measured IC50 for Cc1ccc(C(=O)Nc2cc(-c3ccnc(N4CCC(O)CC4)c3)ccn2)cc1
OUTPUT: 0.261

INPUT: Give the measured IC50 for CC1CCN(c2cc(-c3ccnc(NC(=O)c4ccc(C(F)(F)F)cc4)c3)ccn2)CC1
OUTPUT: 3.18

---

# tested-on: CDK9/cyclin T1 (Homo sapiens, UniProt P50750)
# Sequence (O60563 whole entry): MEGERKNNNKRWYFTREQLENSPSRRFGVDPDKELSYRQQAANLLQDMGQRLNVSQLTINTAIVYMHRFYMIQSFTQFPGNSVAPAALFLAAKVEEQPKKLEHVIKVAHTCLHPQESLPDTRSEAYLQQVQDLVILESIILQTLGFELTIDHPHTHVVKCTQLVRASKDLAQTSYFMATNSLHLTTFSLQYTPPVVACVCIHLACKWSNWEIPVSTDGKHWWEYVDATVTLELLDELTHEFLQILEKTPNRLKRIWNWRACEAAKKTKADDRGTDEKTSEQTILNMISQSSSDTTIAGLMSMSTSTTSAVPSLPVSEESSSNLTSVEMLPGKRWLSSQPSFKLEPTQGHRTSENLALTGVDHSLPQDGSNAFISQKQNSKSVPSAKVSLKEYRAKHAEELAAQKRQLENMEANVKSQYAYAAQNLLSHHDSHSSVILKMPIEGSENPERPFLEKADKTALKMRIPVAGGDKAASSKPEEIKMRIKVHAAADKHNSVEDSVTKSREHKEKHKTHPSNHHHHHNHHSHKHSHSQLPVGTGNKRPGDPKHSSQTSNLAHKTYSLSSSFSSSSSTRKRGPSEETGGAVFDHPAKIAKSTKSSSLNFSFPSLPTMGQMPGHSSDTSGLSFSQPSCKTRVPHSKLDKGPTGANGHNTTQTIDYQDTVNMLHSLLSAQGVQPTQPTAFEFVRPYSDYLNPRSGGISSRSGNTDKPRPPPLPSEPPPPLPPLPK
# Sequence (P50750 whole entry): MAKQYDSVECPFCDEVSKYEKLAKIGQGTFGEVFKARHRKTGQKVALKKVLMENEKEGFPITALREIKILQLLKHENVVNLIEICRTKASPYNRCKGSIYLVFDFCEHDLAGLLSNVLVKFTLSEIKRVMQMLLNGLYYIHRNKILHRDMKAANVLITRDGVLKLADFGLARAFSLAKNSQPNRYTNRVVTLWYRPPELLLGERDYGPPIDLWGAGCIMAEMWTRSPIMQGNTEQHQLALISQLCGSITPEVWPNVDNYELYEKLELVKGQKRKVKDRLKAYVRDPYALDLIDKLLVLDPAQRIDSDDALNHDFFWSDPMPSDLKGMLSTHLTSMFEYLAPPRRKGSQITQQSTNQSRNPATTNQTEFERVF
# assay-details: Inhibition of human CDK9/Cyclin T1 in presence of ATP by radiometric kinase assay
pIC50: −log10 of the molar value.
value-kind: pIC50

INPUT: Give the measured pIC50 for N[C@H]1CC[C@H](Nc2cc(-c3cccc(NCc4cccc(F)c4)n3)c(Cl)cn2)CC1
OUTPUT: > 9.40

---

# assay-details: Cytotoxicity against human MRC5 cells assessed as inhibition of cell growth incubated for 72 hrs by MTT assay
# Assay type: toxicity, cell-based
I'd be grateful if you could share measured IC50 at 72 h for these entries.
Report as a plain number; the unit µM is understood.

INPUT: Give the measured IC50 at 72 h for COc1ccc(C(=O)Nc2cc(-c3ccnc(N4CCC(O)CC4)c3)ccn2)cc1
OUTPUT: 0.335

INPUT: Give the measured IC50 at 72 h for N[C@H]1CC[C@H](Nc2cc(-c3cccc(NCc4cccc(F)c4)n3)c(Cl)cn2)CC1
OUTPUT: 0.197

---

# assay-details: Cytotoxicity against HEK293T cells assessed as inhibition of cell growth by MTT assay
# Assay type: toxicity, cell-based, HEK-293T
# setup-conditions: human
value-kind: IC50

INPUT: Give the measured IC50 for CCOc1cc(/C=N/O)ccc1OCC#CC1c2c(cc3c(c2OC)OCO3)CCN1C (stereo unspecified)
OUTPUT: > 100 µM

---

# assay-details: AUC (0 to infinity) in Sprague-Dawley rat at 50 mg/kg, ip measured afer 24 hrs by LC-MS/MS analysis
# Assay type: ADME, organism-based
# setup-conditions: in vivo
value-kind: AUC(0-inf) (ng·h/mL)
Report as a plain number; the unit ng·h/mL is understood.

INPUT: Give the measured AUC(0-inf) for COc1ccc(C(=O)Nc2cc(-c3ccnc(N4CCC(O)CC4)c3)ccn2)cc1
OUTPUT: 17000

---

I'd be grateful if you could share measured log10 of IC50 at 72 h for these entries.
# assay-details: Cytotoxicity against human L02 cells assessed as inhibition of cell growth incubated for 72 hrs by MTT assay
# Type: toxicity, cell-based
Recall that a logarithmic scale is used here: each number is log10 of IC50 at 72 h in nM.

INPUT: Give the measured log10 of IC50 at 72 h for Cc1ccc(C(=O)Nc2cc(-c3ccnc(N4CCC(O)CC4)c3)ccn2)cc1
OUTPUT: 2.94

INPUT: Give the measured log10 of IC50 at 72 h for COc1ccc(C(=O)Nc2cc(-c3ccnc(N4CCC(N)CC4)c3)ccn2)cc1
OUTPUT: 3.14

INPUT: Give the measured log10 of IC50 at 72 h for COc1ccc(C(=O)Nc2cc(-c3ccnc(N4CCC(NC(=O)OC(C)(C)C)CC4)c3)ccn2)cc1
OUTPUT: 2.73

INPUT: Give the measured log10 of IC50 at 72 h for CCN1CCN(c2cc(-c3ccnc(NC(=O)c4ccc(OC)cc4)c3)ccn2)CC1
OUTPUT: 3.84

INPUT: Give the measured log10 of IC50 at 72 h for COc1ccc(C(=O)Nc2cc(-c3ccnc(N(C)CCO)c3)ccn2)cc1
OUTPUT: 3.05

INPUT: Give the measured log10 of IC50 at 72 h for Cc1ccc(C(=O)Nc2cc(-c3ccnc(N4CCCC(O)C4)c3)ccn2)cc1 (configuration not stated)
OUTPUT: 2.77

---

# Tested on: MDA-MB-231
# assay-details: cells
# setup-conditions: Homo sapiens, MDA-MB-231, 72 h
I'd be grateful if you could share measured IC50 for these entries.
Report as a plain number; the unit nM is understood.

INPUT: # assay system MDA-MB-231: give IC50 of CCOc1ccc(C(=O)Nc2cc(-c3ccnc(N4CCC(O)CC4)c3)ccn2)cc1
OUTPUT: 103

INPUT: # assay system MDA-MB-231: give IC50 of COc1ccc(CNc2cc(-c3ccnc(N4CCC(O)CC4)c3)ccn2)cc1
OUTPUT: 3220

INPUT: # assay system MDA-MB-231: give IC50 of CC1CCCN(c2cc(-c3ccnc(NC(=O)c4ccc(F)cc4)c3)ccn2)C1 (stereo unspecified)
OUTPUT: 273

INPUT: # assay system MDA-MB-231: give IC50 of Cc1ccc(C(=O)Nc2cc(-c3ccnc(N4CCC(C)CC4)c3)ccn2)cc1
OUTPUT: 1280

INPUT: # assay system MDA-MB-231: give IC50 of Cc1ccc(C(=O)Nc2cc(-c3ccnc(N4CCCC(O)C4)c3)ccn2)cc1 (stereo unspecified)
OUTPUT: 726

INPUT: # assay system MDA-MB-231: give IC50 of COc1ccc(C(=O)Nc2cc(-c3ccnc(N4CCC(N)CC4)c3)ccn2)cc1
OUTPUT: 1160

INPUT: # assay system MDA-MB-231: give IC50 of O=C(Nc1cc(-c2ccnc(N3CCC(O)CC3)c2)ccn1)c1ccc(C(F)(F)F)cc1
OUTPUT: 112

INPUT: # assay system MDA-MB-231: give IC50 of N[C@H]1CC[C@H](Nc2cc(-c3cccc(NCc4cccc(F)c4)n3)c(Cl)cn2)CC1
OUTPUT: 80

INPUT: # assay system MDA-MB-231: give IC50 of COc1ccc(C(=O)Nc2cc(-c3ccnc(N(C)CCO)c3)ccn2)cc1
OUTPUT: 367

INPUT: # assay system MDA-MB-231: give IC50 of COc1cc(C(=O)Nc2cc(-c3ccnc(N4CCC(O)CC4)c3)ccn2)cc(OC)c1OC
OUTPUT: 1740

---

# Test system: MDA-MB-231
# assay-details: cells
# setup-conditions: Homo sapiens, MDA-MB-231, 72 h
value-kind: IC50 (nM)
Report as a plain number; the unit nM is understood.

INPUT: # assay system MDA-MB-231: give IC50 of O=C(Nc1cc(-c2ccnc(N3CCCC(CO)C3)c2)c(Cl)cn1)c1ccc(F)cc1 (stereo not given)
OUTPUT: 585

INPUT: # assay system MDA-MB-231: give IC50 of COc1ccc(C(=O)Nc2cc(-c3ccnc(N4CCC(C)CC4)c3)ccn2)cc1
OUTPUT: 184

INPUT: # assay system MDA-MB-231: give IC50 of COc1ccc(CC(=O)Nc2cc(-c3ccnc(N4CCC(O)CC4)c3)ccn2)cc1
OUTPUT: 7860

INPUT: # assay system MDA-MB-231: give IC50 of COc1ccc(C(=O)Nc2cc(-c3ccnc(N4CCCC(CO)C4)c3)ccn2)cc1 (stereo not given)
OUTPUT: 76

INPUT: # assay system MDA-MB-231: give IC50 of Cc1cccc(C(=O)Nc2cc(-c3ccnc(N4CCC(C)CC4)c3)ccn2)c1
OUTPUT: 3140

INPUT: # assay system MDA-MB-231: give IC50 of COc1ccc(C(=O)Nc2cc(-c3ccnc(N4CCC(NC(=O)OC(C)(C)C)CC4)c3)ccn2)cc1
OUTPUT: 199

INPUT: # assay system MDA-MB-231: give IC50 of CCN1CCN(c2cc(-c3ccnc(NC(=O)c4ccc(OC)cc4)c3)ccn2)CC1
OUTPUT: 1000
